B1: tRNA (parent)
chain: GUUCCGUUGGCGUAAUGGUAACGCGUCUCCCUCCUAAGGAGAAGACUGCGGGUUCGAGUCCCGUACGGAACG

Variants of: B1
ASSAY_METHOD_TEXT: yeast fitness relative to wild type (ratio to wild type); higher = fitter; tRNA-Arg(CCU), competitive growth, 37 C, YPD
Variants at the floor of the assay were thinned out.
In this section, each of the variants is paired with its reported yeast fitness.
Output spec: single numeric token, no unit.

Problem: Quick one: yeast fitness for A20C C27U G67U ?
Result: 0.674

Problem: // lookup yeast fitness for C29G G50A
Result: 0.605

Problem: Please report the recorded yeast fitness for G56C A57G .
Result: 0.706

Problem: For the variant U26C C30A C49U , what yeast fitness is on record?
Result: 0.533

Problem: Entry under review: A43G G56C A69U . Reported yeast fitness?
Result: 0.683

Problem: Given C27U U28C A45C , state its recorded yeast fitness.
Result: 0.773
